Assay: Solubility of the compound of Formula (1) in various solvents (excess compound, shaking, HPLC)
Format: physicochemical
Conditions: oil or lipid, thermodynamic from solid; in Oleic acid; 25° C., 24 hours
Endpoint Name: solubility at 24 h

[[record]]
smiles_record = "CCCc1nc(C(F)(F)F)ccc1/C=C/C(=O)N[C@H](C)c1cc(F)c(NS(C)(=O)=O)c(F)c1"
endpoint_name = "solubility at 24 h"
value = "430 µg/mL"


###

Assay: Solubility of the compound of Formula (1) in various solvents (excess compound, shaking, HPLC)
Format: physicochemical
Conditions: organic solvent or mixture, thermodynamic from solid; in Propylene glycol; 25° C., 24 hours
Endpoint Name: solubility at 24 h (mg/mL)

[[record]]
molecule = "CCCc1nc(C(F)(F)F)ccc1/C=C/C(=O)N[C@H](C)c1cc(F)c(NS(C)(=O)=O)c(F)c1 [compound of Formula (1)]"
value = 25


###

Assay: Solubility of the compound of Formula (1) in various solvents (excess compound, shaking, HPLC)
Type: physicochemical
Settings: organic solvent or mixture, thermodynamic from solid; in Oleoyl polyoxyl-6 glycerides; 25° C., 24 hours
Endpoint Name: solubility at 24 h

[[record]]
smiles_record = "CCCc1nc(C(F)(F)F)ccc1/C=C/C(=O)N[C@H](C)c1cc(F)c(NS(C)(=O)=O)c(F)c1"
value = "4360 µg/mL"


###

Test: Solubility of the compound of Formula (1) in various solvents (excess compound, shaking, HPLC)
Assay type: physicochemical
Conditions: organic solvent or mixture, thermodynamic from solid; in Methanol; 25° C., 24 hours
Endpoint Name: solubility at 24 h (mg/mL)

[[record]]
smiles_record = "CCCc1nc(C(F)(F)F)ccc1/C=C/C(=O)N[C@H](C)c1cc(F)c(NS(C)(=O)=O)c(F)c1"
unit_of_measure = "mg/mL"
value = 178


###

Assay: Solubility of the compound of Formula (1) in various solvents (excess compound, shaking, HPLC)
Assay type: physicochemical
Settings: organic solvent or mixture, thermodynamic from solid; in Polyoxyl 40 hydrogenated castor oil; 25° C., 24 hours
Endpoint Name: solubility at 24 h (mg/mL)

[[record]]
smiles_record = "CCCc1nc(C(F)(F)F)ccc1/C=C/C(=O)N[C@H](C)c1cc(F)c(NS(C)(=O)=O)c(F)c1"
endpoint_name = "solubility at 24 h"
unit_of_measure = "mg/mL"
value = 36


###

Assay: Solubility of the compound of Formula (1) in various solvents (excess compound, shaking, HPLC)
Assay type: physicochemical
Settings: organic solvent or mixture, thermodynamic from solid; in Polyethylene glycol(PEG) 300; 25° C., 24 hours
Endpoint Name: solubility at 24 h (mg/mL)

[[record]]
smiles_record = "CCCc1nc(C(F)(F)F)ccc1/C=C/C(=O)N[C@H](C)c1cc(F)c(NS(C)(=O)=O)c(F)c1"
value = 146


###

Test: Solubility of the compound of Formula (1) in various solvents (excess compound, shaking, HPLC)
Format: physicochemical
Conditions: organic solvent or mixture, thermodynamic from solid; in Glycerol; 25° C., 24 hours
Endpoint Name: solubility at 24 h (µg/mL)

[[record]]
smiles_record = "CCCc1nc(C(F)(F)F)ccc1/C=C/C(=O)N[C@H](C)c1cc(F)c(NS(C)(=O)=O)c(F)c1"
value = 840


###

Test: Solubility of the compound of Formula (1) in various solvents (excess compound, shaking, HPLC)
Format: physicochemical
Settings: oil or lipid, thermodynamic from solid; in Ethyl oleate; 25° C., 24 hours
Endpoint Name: solubility at 24 h (µg/mL)

[[record]]
molecule = "CCCc1nc(C(F)(F)F)ccc1/C=C/C(=O)N[C@H](C)c1cc(F)c(NS(C)(=O)=O)c(F)c1 [compound of Formula (1)]"
endpoint_name = "solubility at 24 h"
value = 1000

